# max_MFI per record follows
- targetUnderTest: T1, cynomolgus monkey CD3 on the surface of expanded monkey T cells (cynomolgus monkey, UniProt Q95LI5 22-198; Q95LI8 22-171; Q95LI7 23-181)
- T1 construct: whole, on cells; Endogenous CD3 within the TCR-CD3 complex on T cells expanded from cynomolgus monkey PBMC
- T1 sequence (Q95LI5 22-198, chain 1 of 3): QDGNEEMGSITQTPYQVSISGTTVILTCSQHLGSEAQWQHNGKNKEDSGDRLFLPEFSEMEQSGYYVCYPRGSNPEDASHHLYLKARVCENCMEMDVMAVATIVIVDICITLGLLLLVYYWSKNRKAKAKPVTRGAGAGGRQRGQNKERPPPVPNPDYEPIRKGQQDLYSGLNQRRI
- T1 sequence (Q95LI8 22-171, chain 2 of 3): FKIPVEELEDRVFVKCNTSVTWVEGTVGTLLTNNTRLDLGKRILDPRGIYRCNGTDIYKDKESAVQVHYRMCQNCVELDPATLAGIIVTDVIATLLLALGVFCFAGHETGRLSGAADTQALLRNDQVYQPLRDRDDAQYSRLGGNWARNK
- T1 sequence (Q95LI7 23-181, chain 3 of 3): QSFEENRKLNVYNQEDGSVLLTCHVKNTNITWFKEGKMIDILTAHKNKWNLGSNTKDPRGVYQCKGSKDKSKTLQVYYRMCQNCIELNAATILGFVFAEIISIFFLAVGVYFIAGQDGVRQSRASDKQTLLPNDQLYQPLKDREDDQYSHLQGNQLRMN
- procedureDetails: FACS, expanded monkey T cells
Give the quantity in MFI, number only.

Solved entries:
binder	measurementUnit	max_MFI
5-7.13-H1a-L2 humanized antibody (antibody, human IgG1, kappa, V domains shown) VH: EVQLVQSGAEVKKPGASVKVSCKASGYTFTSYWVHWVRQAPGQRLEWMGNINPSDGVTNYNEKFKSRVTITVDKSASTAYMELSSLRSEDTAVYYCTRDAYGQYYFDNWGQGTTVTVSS VL: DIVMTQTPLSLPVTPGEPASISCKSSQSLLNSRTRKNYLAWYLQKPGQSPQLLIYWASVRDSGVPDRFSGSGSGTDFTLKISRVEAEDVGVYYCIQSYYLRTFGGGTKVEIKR	MFI	25400
40G5c-hIgG1 (antibody, V domains shown) VH: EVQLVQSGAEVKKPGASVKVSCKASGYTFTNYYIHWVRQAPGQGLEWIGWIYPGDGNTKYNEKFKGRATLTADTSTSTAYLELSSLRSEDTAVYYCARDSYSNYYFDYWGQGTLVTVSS VL: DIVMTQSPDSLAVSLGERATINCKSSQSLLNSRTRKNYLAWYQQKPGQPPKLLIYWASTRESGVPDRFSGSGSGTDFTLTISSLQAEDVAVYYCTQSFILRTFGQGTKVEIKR	MFI	24100
5-40.21-H3-L1 humanized antibody (antibody, human IgG1, kappa, V domains shown) VH: EVQLVQSGAEVKKPGASVKVSCKASGYTFTSYWMHWVRQAPGQGLEWMGNTYPGSGSTNYDEKFKSRVTITVDSSASTAYMELSSLRSEDTAVYYCTRDRYGVYYFDYWGQGTTVTVSS VL: DIVMTQSPDSLAVSLGERATINCKSSQSLLNSRTRKNYLAWYQQKPGQSPKLLIYWASTRESGVPDRFSGSGSGTDFTLTISSLQAEDVAVYYCTQSYNLRTFGGGTKVEIKR	MFI	17800
1-22.6-1-H2a-L2a humanized antibody (antibody, human IgG1, kappa, V domains shown, also called 1-22.6-H2a-L2a) VH: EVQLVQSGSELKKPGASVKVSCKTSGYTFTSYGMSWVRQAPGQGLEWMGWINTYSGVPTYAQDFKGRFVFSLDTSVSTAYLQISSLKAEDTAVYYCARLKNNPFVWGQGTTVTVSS VL: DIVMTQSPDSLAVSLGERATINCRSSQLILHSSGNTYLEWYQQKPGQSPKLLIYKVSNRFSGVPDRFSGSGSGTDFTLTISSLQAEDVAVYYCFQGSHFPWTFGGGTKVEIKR	MFI	12300
7-35.6-H2-L3 humanized antibody (antibody, human IgG1, lambda, V domains shown) VH: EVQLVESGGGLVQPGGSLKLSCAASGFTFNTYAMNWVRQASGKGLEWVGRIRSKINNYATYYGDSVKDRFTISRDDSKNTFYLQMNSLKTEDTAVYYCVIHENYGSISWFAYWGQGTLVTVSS VL: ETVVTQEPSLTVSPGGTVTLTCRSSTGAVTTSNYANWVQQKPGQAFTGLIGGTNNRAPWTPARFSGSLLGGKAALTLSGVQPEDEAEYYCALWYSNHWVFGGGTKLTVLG	MFI	10200

Shifting focus to the binder that follows.
Qu. Bench note: what max_MFI did 6-44.5-H1-L2 humanized antibody (antibody, human IgG1, kappa, V domains shown) VH: EVQLVQSGAEVKKPGSSVKVSCKASGHTFSSHIMHWVRQAPGQGLEWMGYINPNNDRTEYSEKFKGRVTITADKSTSTAYMELSSLRSEDTAVYYCAGEAYYSNSLYAMDYWGQGTTVTVSS VL: DIVMTQSPDSLAVSLGERATINCKSSQSLFNSRTRKNYLAWYQQKPGQSPKLLIYWASTRESGVPDRFSGSGSGTDFTLTISSLQAEDVAVYYCKQSYYLRTFGGGTKVEIKR show?
Ans. 24800
